- Measurement protocol: Animal parameters in male Sprague-Dawley rats
- Type: in vivo, Sprague-Dawley rat
- Condition info: rat, in vivo, po, 0.3% diet, 4 days, N=5, read-out: mortality (deaths per group)
Measurement type: mortality at 96 h
Dear colleague, please send the value followed by its unit.

CC(C)(C)c1cc(OC[Si](C)(C)c2cccs2)cc(C(C)(C)C)c1O | 0%

// next entry
Suppose we examine the molecule CC(C)(C)c1cc(OC[Si](C)(C)c2ccco2)cc(C(C)(C)C)c1O ; what mortality at 96 h value has been reported?
0%
